System: HS 578T breast
Experiment: NCI tumour cell line growth inhibition, 48 h
quantity: TGI

// known answers, use as guide
Data point: CC(=O)OC1=c2ccccc2=C(O)C2C1C=NN2C(C)=O (stereo not drawn) ; TGI = > 100 µM

Data point: C/C(CC/C(C)=N/O)=N\O ; TGI = > 100 µM

Data point: COc1cc2c(cc1OC)-c1cc3ccccc3c[n+]1CC2 ; TGI = 94.7 µM

Data point: CC1(C)[C@H](C(=O)O)N2C(=O)[C@@H](NS(=O)(=O)c3ccc([N+](=O)[O-])cc3)[C@H]2S1(=O)=O ; TGI = > 100 µM

Data point: CCC(C#N)(c1ccccc1)N(CCc1ccccc1)C(=O)c1ccccc1 (stereo not drawn) ; TGI = 69.6 µM

Further cases:
Data point: Clc1ncnc(Cl)c1Cl ; TGI = > 100 µM

Data point: O=C(/C=C1\N=C(c2ccccc2)N(c2nc3ccc(Sc4ccccc4)cc3[nH]2)C1=O)/C=C/c1ccccc1 ; TGI = > 100 µM

Data point: CC(=N\N)/C(C)=N/N=C(C)/C(C)=N/N=C(C)/C(C)=N/N=C(C)/C(C)=N/N ; TGI = > 100 µM

Data point: COC(=O)[C@@]12C(=O)C=CC(=O)[C@@H]1C1C(=CC2COC(C)=O)O[C@@H]2OC3(CCCCC3)O[C@H]12 (stereo partly drawn) ; TGI = 31.6 µM

These entries and their values trace back to PubChem BioAssay (NCI).
